tested on: Escherichia coli; experiment: Antibacterial activity against Escherichia coli at 0.25% (w/v) concentration after 24 hrs by disc diffusion method; format: functional
Could you please report measured inhibition zone (IZ) for the items listed next?
Value expressed in mm; do not type the unit.

inhibition zone (IZ) on Escherichia coli for O=Cc1c(/C=C/O)nc2ccc(Cl)cc2c1Cl is 5

The measured inhibition zone (IZ) that Cc1ccc2c(Cl)c3c(nc2c1)C=CNN=C3 showed for Escherichia coli is 1

Summary: Cc1cccc2c(Cl)c3c(nc12)C=CNN=C3 , Escherichia coli, inhibition zone (IZ) = 2

Entry Cc1ccc(C)c2c(Cl)c(C=O)c(/C=C/O)nc12 under Escherichia coli had inhibition zone (IZ) of 5

Log: Escherichia coli, compound Cc1ccc(C)c2c(Cl)c3c(nc12)C=CNN=C3 , inhibition zone (IZ) = 5

The value of inhibition zone (IZ) recorded for CN[C@@H]1[C@H](O[C@H]2[C@H](O[C@H]3[C@H](O)[C@@H](O)[C@H](N=C(N)N)[C@@H](O)[C@@H]3N=C(N)N)O[C@@H](C)[C@]2(O)C=O)O[C@@H](CO)[C@H](O)[C@H]1O (stereo in doubt) when tested on Escherichia coli reads 9

# value of inhibition zone (IZ), Escherichia coli, item Clc1c2c(nc3ccccc13)C=CNN=C2 = 2

Field inhibition zone (IZ) (Escherichia coli), entry Clc1ccc2nc3c(c(Cl)c2c1)C=NNC=C3 : 7

====

Record form. Attribute: inhibition zone (IZ). Fill in for each entry.
test system: Aeromonas hydrophila; experiment: Antibacterial activity against Aeromonas hydrophila at 0.5% (w/v) concentration after 24 hrs by disc diffusion method; assay type: functional
Quick note: give the figure in mm, leave out the unit.

Entry Cc1ccc2c(Cl)c3c(nc2c1)C=CNN=C3 — recorded inhibition zone (IZ) = 12

Looking up O=Cc1c(/C=C/O)nc2ccccc2c1Cl , I see its inhibition zone (IZ) listed as 9

So, CN[C@@H]1[C@H](O[C@H]2[C@H](O[C@H]3[C@H](O)[C@@H](O)[C@H](N=C(N)N)[C@@H](O)[C@@H]3N=C(N)N)O[C@@H](C)[C@]2(O)C=O)O[C@@H](CO)[C@H](O)[C@H]1O (stereo in doubt) ? Its inhibition zone (IZ) was 19

The recorded inhibition zone (IZ) for Cc1cccc2c(Cl)c(C=O)c(/C=C/O)nc12 is 11

Note to self: inhibition zone (IZ) recorded for Cc1ccc(C)c2c(Cl)c3c(nc12)C=CNN=C3 was 11

# inhibition zone (IZ) of Clc1c2c(nc3ccccc13)C=CNN=C2 = 12

// inhibition zone (IZ) lookup, compound = Cc1ccc(C)c2c(Cl)c(C=O)c(/C=C/O)nc12 , result: 10

Reported inhibition zone (IZ) of O=Cc1c(/C=C/O)nc2ccc(Cl)cc2c1Cl : 14

The reported inhibition zone (IZ) of the compound Clc1ccc2nc3c(c(Cl)c2c1)C=NNC=C3 was 16

inhibition zone (IZ) in this record for Cc1ccc2c(Cl)c(C=O)c(/C=C/O)nc2c1 : 10

The compound identified as Cc1cccc2c(Cl)c3c(nc12)C=CNN=C3 registered its inhibition zone (IZ) at 11

====

system: Aeromonas hydrophila; assay: Antibacterial activity against Aeromonas hydrophila at 0.125% (w/v) concentration after 24 hrs by disc diffusion method; format: functional
For each record, write down the corresponding inhibition zone (IZ).
Number in mm, nothing else.

Tested on Aeromonas hydrophila: Cc1ccc(C)c2c(Cl)c(C=O)c(/C=C/O)nc12 . Observed inhibition zone (IZ): 4

Aeromonas hydrophila assay, compound O=Cc1c(/C=C/O)nc2ccc(Cl)cc2c1Cl , recorded inhibition zone (IZ) = 5

Short answer on Aeromonas hydrophila for O=Cc1c(/C=C/O)nc2ccccc2c1Cl , inhibition zone (IZ): 4

Reported Aeromonas hydrophila inhibition zone (IZ) for item Cc1ccc(C)c2c(Cl)c3c(nc12)C=CNN=C3 was 4

Summary line: Cc1ccc2c(Cl)c3c(nc2c1)C=CNN=C3 , Aeromonas hydrophila, reported inhibition zone (IZ) = 5

inhibition zone (IZ) value, target or system Aeromonas hydrophila, for Clc1ccc2nc3c(c(Cl)c2c1)C=NNC=C3 : 6

Tested system Aeromonas hydrophila; inhibition zone (IZ) recorded for Cc1cccc2c(Cl)c(C=O)c(/C=C/O)nc12 was 4

Value (inhibition zone (IZ), Aeromonas hydrophila) for record Clc1c2c(nc3ccccc13)C=CNN=C2 = 5

Known value: Aeromonas hydrophila inhibition zone (IZ) of the compound CN[C@@H]1[C@H](O[C@H]2[C@H](O[C@H]3[C@H](O)[C@@H](O)[C@H](N=C(N)N)[C@@H](O)[C@@H]3N=C(N)N)O[C@@H](C)[C@]2(O)C=O)O[C@@H](CO)[C@H](O)[C@H]1O (stereo in doubt) equals 8

The observed inhibition zone (IZ) for Cc1ccc2c(Cl)c(C=O)c(/C=C/O)nc2c1 when tested with Aeromonas hydrophila stands at 3

inhibition zone (IZ) on Aeromonas hydrophila for Cc1cccc2c(Cl)c3c(nc12)C=CNN=C3 is 4
